Task for the reader: assign each of the following binders its reported binding signal.
biological target: d-enCas12a-Ultra (Acidaminococcus sp., UniProt U2UMQ6 1-1307, E174R;S542R;K548R;M537R;F870L;D908A;E993A;D1235A); test: Spec-seq (native PAGE EMSA with sequencing of bound and unbound); 25 mM Tris-HCl pH 7.4, 150 mM KCl, 5 mM MgCl2, 10% glycerol, 1 mM DTT, 40 ng/uL salmon sperm DNA; 400 nM Cas12a, 480 nM crRNA, 50 nM library, 37 C 1 h; native PAGE at room temperature; high values mean tight binding; conditions: protein: recombinant;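 note: relative affinity from the bound to unbound sequence frequency ratio in Spec-seq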
# do not omit the unit; it follows the number

Use the examples below as a reference point.
Please look at this binder and report its binding signal: CAGA (dsDNA) DNA 1: GCTATCTAGTGCTCAGTACGCACTGCAGAAGGAAACTTCTGGCAGGACCAGGTCATGAGATCGGAAGAGCACACGTCTGAACTCCAGTCA DNA 2: TGACTGGAGTTCAGACGTGTGCTCTTCCGATCTCATGACCTGGTCCTGCCAGAAGTTTCCTTCTGCAGTGCGTACTGAGCACTAGATAGC RNA: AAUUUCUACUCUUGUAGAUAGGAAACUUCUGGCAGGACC
-3.41 lnKA

Please look at this binder and report its binding signal: GAAT (dsDNA) DNA 1: GCTATCTAGTGCTCAGTACGCACTGGAATAGGAAACTTCTGGCAGGACCAGGTCATGAGATCGGAAGAGCACACGTCTGAACTCCAGTCA DNA 2: TGACTGGAGTTCAGACGTGTGCTCTTCCGATCTCATGACCTGGTCCTGCCAGAAGTTTCCTATTCCAGTGCGTACTGAGCACTAGATAGC RNA: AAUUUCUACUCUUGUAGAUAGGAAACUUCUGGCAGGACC
-3.39 lnKA

Please supply binding signal for each of the following items, keeping them in order.
1. CCGA (dsDNA) DNA 1: GCTATCTAGTGCTCAGTACGCACTGCCGAAGGAAACTTCTGGCAGGACCAGGTCATGAGATCGGAAGAGCACACGTCTGAACTCCAGTCA DNA 2: TGACTGGAGTTCAGACGTGTGCTCTTCCGATCTCATGACCTGGTCCTGCCAGAAGTTTCCTTCGGCAGTGCGTACTGAGCACTAGATAGC RNA: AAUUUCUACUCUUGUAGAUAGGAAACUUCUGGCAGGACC
2. TCGA (dsDNA) DNA 1: GCTATCTAGTGCTCAGTACGCACTGTCGAAGGAAACTTCTGGCAGGACCAGGTCATGAGATCGGAAGAGCACACGTCTGAACTCCAGTCA DNA 2: TGACTGGAGTTCAGACGTGTGCTCTTCCGATCTCATGACCTGGTCCTGCCAGAAGTTTCCTTCGACAGTGCGTACTGAGCACTAGATAGC RNA: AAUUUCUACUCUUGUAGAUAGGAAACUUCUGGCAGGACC

1. -3.44 lnKA
2. -3.33 lnKA

Please supply binding signal for each of the following items, keeping them in order.
1. GTAA (dsDNA) DNA 1: GCTATCTAGTGCTCAGTACGCACTGGTAAAGGAAACTTCTGGCAGGACCAGGTCATGAGATCGGAAGAGCACACGTCTGAACTCCAGTCA DNA 2: TGACTGGAGTTCAGACGTGTGCTCTTCCGATCTCATGACCTGGTCCTGCCAGAAGTTTCCTTTACCAGTGCGTACTGAGCACTAGATAGC RNA: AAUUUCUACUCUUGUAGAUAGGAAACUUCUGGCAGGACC
2. TCTC (dsDNA) DNA 1: GCTATCTAGTGCTCAGTACGCACTGTCTCAGGAAACTTCTGGCAGGACCAGGTCATGAGATCGGAAGAGCACACGTCTGAACTCCAGTCA DNA 2: TGACTGGAGTTCAGACGTGTGCTCTTCCGATCTCATGACCTGGTCCTGCCAGAAGTTTCCTGAGACAGTGCGTACTGAGCACTAGATAGC RNA: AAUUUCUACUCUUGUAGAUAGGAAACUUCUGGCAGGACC
3. ATAG (dsDNA) DNA 1: GCTATCTAGTGCTCAGTACGCACTGATAGAGGAAACTTCTGGCAGGACCAGGTCATGAGATCGGAAGAGCACACGTCTGAACTCCAGTCA DNA 2: TGACTGGAGTTCAGACGTGTGCTCTTCCGATCTCATGACCTGGTCCTGCCAGAAGTTTCCTCTATCAGTGCGTACTGAGCACTAGATAGC RNA: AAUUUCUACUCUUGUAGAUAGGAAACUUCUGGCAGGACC

1. -3.27 lnKA
2. -0.761 lnKA
3. -3.31 lnKA

Please supply binding signal for each of the following items, keeping them in order.
1. TGAT (dsDNA) DNA 1: GCTATCTAGTGCTCAGTACGCACTGTGATAGGAAACTTCTGGCAGGACCAGGTCATGAGATCGGAAGAGCACACGTCTGAACTCCAGTCA DNA 2: TGACTGGAGTTCAGACGTGTGCTCTTCCGATCTCATGACCTGGTCCTGCCAGAAGTTTCCTATCACAGTGCGTACTGAGCACTAGATAGC RNA: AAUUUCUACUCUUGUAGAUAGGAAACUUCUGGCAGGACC
2. CTTC (dsDNA) DNA 1: GCTATCTAGTGCTCAGTACGCACTGCTTCAGGAAACTTCTGGCAGGACCAGGTCATGAGATCGGAAGAGCACACGTCTGAACTCCAGTCA DNA 2: TGACTGGAGTTCAGACGTGTGCTCTTCCGATCTCATGACCTGGTCCTGCCAGAAGTTTCCTGAAGCAGTGCGTACTGAGCACTAGATAGC RNA: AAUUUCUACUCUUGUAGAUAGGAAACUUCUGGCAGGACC

1: -3.37 lnKA; 2: -0.217 lnKA

Please look at this binder and report its binding signal: TCGG (dsDNA) DNA 1: GCTATCTAGTGCTCAGTACGCACTGTCGGAGGAAACTTCTGGCAGGACCAGGTCATGAGATCGGAAGAGCACACGTCTGAACTCCAGTCA DNA 2: TGACTGGAGTTCAGACGTGTGCTCTTCCGATCTCATGACCTGGTCCTGCCAGAAGTTTCCTCCGACAGTGCGTACTGAGCACTAGATAGC RNA: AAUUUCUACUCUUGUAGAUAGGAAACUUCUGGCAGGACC
-3.45 lnKA
